B1: RHOBTB3 (parent)
chain: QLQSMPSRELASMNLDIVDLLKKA

# Variants of: B1
# ASSAY_SUMMARY: protein stability index of a GFP-peptide fusion (GPS, HEK-293T) (PSI 1-6); higher = more stable;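 also: lentivirally expressed fusions sorted by FACS into six bins by GFP to DsRed ratio, PSI derived from sequencing read proportions per bin multiplied by bin number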
# CONDITION_PARAMETERS: c terminus: a fixed tail appended
MEASURED_ENDPOINT: protein stability index
Just the number.

For orientation, consider the following solved cases.
{"VARIANT_ANNOTATION": "S7K", "protein stability index": 2.97}
{"VARIANT_ANNOTATION": "L21F", "protein stability index": 3}
{"VARIANT_ANNOTATION": "S4K", "protein stability index": 3.08}

Please look at the following variant next.
May I ask what protein stability index has been recorded for S12N ?
3.06
